- Experimental Details: Solubility in water and methanol (saturated solutions, HPLC)
- Format: physicochemical
- Assay Conditions: water, thermodynamic from solid, water; read-out: Solubility in water
Parameter Measured: Solubility (µg/mL)
Write the value in µg/mL as a bare number.

**Query** Determine from records and report Solubility for C[C@H]1[C@H](C)CC[C@]2(C(=O)O)CC[C@]3(C)C(=CC[C@@H]4[C@@]5(C)C[C@@H](O)[C@H](O)[C@@](C)(CO)[C@@H]5CC[C@]43C)[C@H]12
**Result** 30

====

- Experimental Details: Solubility in water and methanol (saturated solutions, HPLC)
- Assay type: physicochemical
- Assay Conditions: water, thermodynamic from solid, water; single preparations (inj 1A-1C); read-out: Solubility
Counter-ions that a name gives are not always drawn.
Please go through the items and note down their Solubility.
Express your answer in µg/mL, writing the number without its unit.

**Query** Answer with reported Solubility of C[C@H]1[C@H](C)CC[C@]2(C(=O)O)CC[C@]3(C)C(=CC[C@@H]4[C@@]5(C)C[C@@H](O)[C@H](O)[C@@](C)(CO)[C@@H]5CC[C@]43C)[C@H]12 [Asiatic acid, asiatic acid]
**Result** 30

**Query** Indicate its recorded Solubility; the compound in question is C[C@H]1[C@H](C)CC[C@]2(C(=O)O)CC[C@]3(C)C(=CC[C@@H]4[C@@]5(C)C[C@@H](O)[C@H](O)[C@@](C)(CO)[C@@H]5CC[C@]43C)[C@H]12 [Asiatic acid-Na salt NaOH, asiatic acid sodium salt]
**Result** 6860

src = patent US8742167B2
